tested on: HCT-116; assay: Cytotoxicity against human HCT116 cells assessed as reduction in cell viability after 48 hrs by MTT assay; type: functional, cell-based; conditions: HCT-116, 48 h
Field: label. Allowed values: 1 (IC50 < 30 µM) or -1 (IC50 >= 30 µM).

O=C(CC1c2ccccc2N=C(SCCCCCN2CCCC2)N1c1ccccc1)NCc1ccc(F)cc1 (stereo not given); 1
CN(C)CCCCCSC1=Nc2ccccc2C(CC(=O)NCc2ccc(F)cc2)N1c1ccccc1 (stereo not given); -1
O=C(CC1c2ccccc2N=C(SCCCCCN2CCCC2)N1c1ccc(-c2ccc(F)cc2)cc1)NCc1ccccc1 (stereo not given); 1
O=C(CC1c2ccccc2N=C(SCCCCCN2CCCC2)N1c1ccc(-c2ccccc2)cc1)NCc1ccccc1 (stereo not given); 1

Query string: Is the reported IC50 for CN(C)CCCCCSC1=Nc2ccccc2C(CC(=O)NCc2ccccc2)N1c1ccc(-c2ccc(F)cc2)cc1 (stereo not given) strictly below 30 µM?
Result string: 1
